B1: ACSBG2 (parent)
chain: FAQADALKGTLVSTLKEVKPTVFI

- Variants of: B1
- assay protocol: protein stability index of a GFP-peptide fusion (GPS, HEK-293T) (PSI 1-6); higher = more stable;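 note: lentivirally expressed fusions sorted by FACS into six bins by GFP to DsRed ratio, PSI derived from sequencing read proportions per bin multiplied by bin number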
- reported conditions: c terminus: a fixed tail appended
quantity kind: protein stability index

{"primary sequence": "FSQADALKGTLVSTLKEVKPTVFI", "reading": 1.76}
{"primary sequence": "FAQADALKGTPVSTLKEVKPTVFI", "reading": 1.84}
{"primary sequence": "FAQAVALKGTLVSTLKEVKPTVFI", "reading": 2.08}
{"primary sequence": "FAQADALRGTLVSTLKEVKPTVFI", "reading": 1.8}
{"primary sequence": "FAQADALKGTCVSTLKEVKPTVFI", "reading": 1.72}
{"primary sequence": "FAQADRLKGTLVSTLKEVKPTVFI", "reading": 1.67}
{"primary sequence": "FAQADALKGTLVSTLKEVKPTVNI", "reading": 1.69}
{"primary sequence": "FAQADALKGTLVSTLKEVKPTVQI", "reading": 2.16}
{"primary sequence": "FAQNDALKGTLVSTLKEVKPTVFI", "reading": 2.14}
{"primary sequence": "FAQADALKGTLHSTLKEVKPTVFI", "reading": 2.12}
{"primary sequence": "IAQADALKGTLVSTLKEVKPTVFI", "reading": 2.25}
{"primary sequence": "FAQADCLKGTLVSTLKEVKPTVFI", "reading": 1.28}
{"primary sequence": "FAQADALKGTLVSLLKEVKPTVFI", "reading": 1.51}
{"primary sequence": "FAQADALKGTLVSTLKEQKPTVFI", "reading": 2.04}
{"primary sequence": "FAQADALKGTLVSTLKEVKPTPFI", "reading": 2.02}
{"primary sequence": "FAQADALKPTLVSTLKEVKPTVFI", "reading": 2.01}
{"primary sequence": "FAQADALKGTLVSTLKEVKPTVFH", "reading": 2.02}
